Target: mouse ROR1 (serum titer ELISA antigen) (mouse, UniProt Q9Z139 30-403, limits assumed)
Sequence (Q9Z139 30-403 limits assumed): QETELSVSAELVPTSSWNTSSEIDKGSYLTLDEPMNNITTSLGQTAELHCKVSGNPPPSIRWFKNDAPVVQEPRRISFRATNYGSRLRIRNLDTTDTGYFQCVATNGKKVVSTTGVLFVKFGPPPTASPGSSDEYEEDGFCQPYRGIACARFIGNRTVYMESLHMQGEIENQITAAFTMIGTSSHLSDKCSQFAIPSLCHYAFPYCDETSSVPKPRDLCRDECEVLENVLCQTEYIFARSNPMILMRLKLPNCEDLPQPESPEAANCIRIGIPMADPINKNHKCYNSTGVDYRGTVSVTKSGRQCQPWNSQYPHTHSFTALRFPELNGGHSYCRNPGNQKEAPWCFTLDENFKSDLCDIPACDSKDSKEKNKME
Assay: ELISA, direct coat; BCC supernatant
Item-by-item account of ELISA OD450
Give the value, in units of OD450, as a plain number.

338H4 (antibody, V domains shown, chimeric counterpart m8; also called rabbit IgG of BCC well 338H4) VH: QSVEESGGRLVTPGTPLTLTCTVSGFSLSSYAMSWVRQAPGRGLEWIGIIYASGSTYYASWAKGRFTISKTSTTVDLKITSPTTEDTATYFCARIYDGMDLWGPGTLVTVSS VL: DIVMTQTPASVSAAVGGTVTINCQASQNIYSYLSWYQQKPGQPPKRLIYLASTLASGVPSRFKSSGSGTEYTLTISDLECDDAATYYCQSNYNGNYGFGGGTEVEVK = 4

Switching to the query record.
[in] Please look up its ELISA OD450: 323H7 (antibody, V domains shown, chimeric counterpart m3; also called rabbit IgG of BCC well 323H7) VH: QEQLKESGGGLVTPGGTLTLTCTASGFTISRYHMTWVRQAPGKGLEWIGHIYVNNDDTDYASWAKGRFTISKTSTTVDLKITSPTTEDTATYFCARLDVGGGGAYIGDIWGQGTLVTVSS VL: QAVVTQTPSSVSAAVGGTVTISCQSSQSVYNNNDLAWYQQKPGQPPKLLIYYASTLASGVSSRFKGSGSGTQFTLAISDLECDDSATYYCAGGYDTDGLDTFAFGGGTEVEVK
[out] 0.2
